Data origin: paper PMC10810133

target: Hp0231 (Helicobacter pylori, UniProt O25017); assay: biochemical; settings: MST, pseudo-titration mode, 25°C; Hp0231; mean of three experiments ± S.D.; NB = not binding
Sequence (O25017 entry or part of it): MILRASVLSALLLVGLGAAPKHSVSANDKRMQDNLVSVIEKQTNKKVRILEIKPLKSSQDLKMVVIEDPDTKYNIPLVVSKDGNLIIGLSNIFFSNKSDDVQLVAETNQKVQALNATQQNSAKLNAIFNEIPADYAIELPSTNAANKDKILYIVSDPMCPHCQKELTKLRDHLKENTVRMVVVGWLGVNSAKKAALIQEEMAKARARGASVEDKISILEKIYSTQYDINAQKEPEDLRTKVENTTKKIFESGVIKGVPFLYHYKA
Reported Endpoint: Kd

*Q* Using the record for Ac-HQSALYEL-NH2 [WAW6] , report its Kd.
*A* > 1000 µM

* * *

biological target: Hp0231 (Helicobacter pylori, UniProt O25017); assay: biochemical
Reported Endpoint: pKd
Numbers only, as −log10 of the molar value.

*Q* Reported pKd, substance Ac-HQSCAYEL-NH2 [WAW7] : ____
*A* 3.95
